tested on: 958767-090-R-J1-PDC spheroid growth; test: Anticancer human tumor 958767-090-R-J1-PDC patient-derived head and neck squamous carcinoma cell line growth inhibition [IpAb]; conditions: second compound 10 µM; first compound 1 µM; hits give low values; spheroids with HUVEC and MSC
List of viability, T/C values.
measured quantity: viability, T/C

compound | result
Cc1nc(NC(=O)N2CCCC2C(N)=O)sc1-c1ccnc(C(C)(C)C(F)(F)F)c1 (stereo not drawn) + CC(C)NCC(C(=O)N1CCN(c2ncnc3c2C(C)CC3O)CC1)c1ccc(Cl)cc1 | 10.8%
Cn1nccc1Nc1nccc(-c2ccn(C(CO)c3ccc(Cl)c(F)c3)c(=O)c2)n1 (stereo not drawn) + CC(C)NCC(C(=O)N1CCN(c2ncnc3c2C(C)CC3O)CC1)c1ccc(Cl)cc1 | 15.2%
C=CCn1c(=O)c2cnc(Nc3ccc(N4CCN(C)CC4)cc3)nc2n1-c1cccc(C(C)(C)O)n1 + CC(C)NCC(C(=O)N1CCN(c2ncnc3c2C(C)CC3O)CC1)c1ccc(Cl)cc1 | 13.9%

###

tested on: 958767-090-R-J1-PDC spheroid growth; experiment: Anticancer human tumor 958767-090-R-J1-PDC cell line growth inhibition [IpAb]; conditions: second compound 0.316 µM; first compound 3 µM; spheroids with HUVEC and MSC; active = viability on the fitted dose curve at most 10% of control; inactive = the rest;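 note: spheroids exposed to agents for 7 days; 100% = DMSO vehicle control wells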
Possible outcomes: True = active, False = inactive

molecule | discrete label
Cn1cnc2c(F)c(Nc3ccc(Br)cc3Cl)c(C(=O)NOCCO)cc21 + CC(C)NCC(C(=O)N1CCN(c2ncnc3c2C(C)CC3O)CC1)c1ccc(Cl)cc1 | True
CC(C)(C)c1cnc(CSc2cnc(NC(=O)C3CCNCC3)s2)o1 + CCN1CCN(Cc2ccc(Nc3ncc(F)c(-c4cc(F)c5nc(C)n(C(C)C)c5c4)n3)nc2)CC1 | True
CC(C)(C)c1cnc(CSc2cnc(NC(=O)C3CCNCC3)s2)o1 + CC(C)NCC(C(=O)N1CCN(c2ncnc3c2C(C)CC3O)CC1)c1ccc(Cl)cc1 | True
Cn1cnc2c(F)c(Nc3ccc(Br)cc3Cl)c(C(=O)NOCCO)cc21 + CCN1CCN(Cc2ccc(Nc3ncc(F)c(-c4cc(F)c5nc(C)n(C(C)C)c5c4)n3)nc2)CC1 | False

###

system: 958767-090-R-J1-PDC spheroid growth; assay: Anticancer human tumor 958767-090-R-J1-PDC cell line growth inhibition [IpAb]; conditions: second compound 1 µM; first compound 3.16 µM; hits give low values; spheroids with HUVEC and MSC;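 note: spheroids exposed to agents for 7 days; 100% = DMSO vehicle control wells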
measured quantity: viability, T/C (%)

compound | recorded number
Cn1ncc(Cl)c1-c1cc(C(=O)NC(CN)Cc2cccc(F)c2)sc1Cl (stereo not given) + CC(C)NCC(C(=O)N1CCN(c2ncnc3c2C(C)CC3O)CC1)c1ccc(Cl)cc1 | 31.6
C=CCn1c(=O)c2cnc(Nc3ccc(N4CCN(C)CC4)cc3)nc2n1-c1cccc(C(C)(C)O)n1 + CCN1CCN(Cc2ccc(Nc3ncc(F)c(-c4cc(F)c5nc(C)n(C(C)C)c5c4)n3)nc2)CC1 | 42.8
CC1(C)CCC(CN2CCN(c3ccc(C(=O)NS(=O)(=O)c4ccc(NCC5CCOCC5)c([N+](=O)[O-])c4)c(Oc4cnc5[nH]ccc5c4)c3)CC2)=C(c2ccc(Cl)cc2)C1 + CCN1CCN(Cc2ccc(Nc3ncc(F)c(-c4cc(F)c5nc(C)n(C(C)C)c5c4)n3)nc2)CC1 | 70.9
Cn1nccc1Nc1nccc(-c2ccn(C(CO)c3ccc(Cl)c(F)c3)c(=O)c2)n1 (stereo not given) + CC(C)NCC(C(=O)N1CCN(c2ncnc3c2C(C)CC3O)CC1)c1ccc(Cl)cc1 | 13.2
Cn1ncc(Cl)c1-c1cc(C(=O)NC(CN)Cc2cccc(F)c2)sc1Cl (stereo not given) + CCN1CCN(Cc2ccc(Nc3ncc(F)c(-c4cc(F)c5nc(C)n(C(C)C)c5c4)n3)nc2)CC1 | 27.9
Cc1nc(NC(=O)N2CCCC2C(N)=O)sc1-c1ccnc(C(C)(C)C(F)(F)F)c1 (stereo not given) + CCN1CCN(Cc2ccc(Nc3ncc(F)c(-c4cc(F)c5nc(C)n(C(C)C)c5c4)n3)nc2)CC1 | 19.9
CCCS(=O)(=O)Nc1ccc(F)c(C(=O)c2c[nH]c3ncc(-c4ccc(Cl)cc4)cc23)c1F + CCN1CCN(Cc2ccc(Nc3ncc(F)c(-c4cc(F)c5nc(C)n(C(C)C)c5c4)n3)nc2)CC1 | 69.5
C=CC(=O)N1CCN(c2nc(=O)n(-c3c(C)ccnc3C(C)C)c3nc(-c4c(O)cccc4F)c(F)cc23)C(C)C1 (stereo not given) + CC(C)NCC(C(=O)N1CCN(c2ncnc3c2C(C)CC3O)CC1)c1ccc(Cl)cc1 | 34
CCCS(=O)(=O)Nc1ccc(F)c(C(=O)c2c[nH]c3ncc(-c4ccc(Cl)cc4)cc23)c1F + CC(C)NCC(C(=O)N1CCN(c2ncnc3c2C(C)CC3O)CC1)c1ccc(Cl)cc1 | 60.8
C=CCn1c(=O)c2cnc(Nc3ccc(N4CCN(C)CC4)cc3)nc2n1-c1cccc(C(C)(C)O)n1 + CC(C)NCC(C(=O)N1CCN(c2ncnc3c2C(C)CC3O)CC1)c1ccc(Cl)cc1 | 16.9
